Assay explanation: physchem
Condition info: simulated intestinal fluid
Description: Chemical stability in stimulated intestinal fluid assessed as compound remaining at 10 uM measured upto 120 mins by LC-MS analysis
Readout: remaining at 2 h, 10 µM

May I ask what remaining at 2 h, 10 µM has been recorded for Cc1ccc(NC(=O)c2ccc3c(c2)c(CNCCN2CCNCC2)cn3C)cc1C ?
> 80%
